Record set of Average (percentage cell inhibition), Dmastoparan MDA-MB231 12.5uM for target or system MDA-MB-231 cells.
MEASURE_NAME: Average (percentage cell inhibition), Dmastoparan MDA-MB231 12.5uM (%)

>>> reading("CC[C@H](C)[C@H](N)C(=O)N[C@@H](CC(N)=O)C(=O)N[C@@H](CC(C)C)C(=O)N[C@@H](CCCCN)C(=O)N[C@@H](C)C(=O)N[C@@H](CC(C)C)C(=O)N[C@@H](C)C(=O)N[C@@H](C)C(=O)N[C@@H](CC(C)C)C(=O)N[C@@H](C)C(=O)N[C@@H](C)C(=O)N[C@@H](CCCCN)C(=O)N[C@H](C(=O)N[C@@H](CC(C)C)C(N)=O)[C@@H](C)CC [A11]")
45.8441
>>> reading("CC[C@H](C)[C@H](NC(=O)[C@H](CCCCN)NC(=O)[C@H](CCCCN)NC(=O)[C@H](C)NC(=O)[C@H](CC(C)C)NC(=O)[C@H](C)NC(=O)[C@H](C)NC(=O)[C@H](CC(C)C)NC(=O)[C@H](C)NC(=O)[C@H](CCCCN)NC(=O)[C@H](CC(C)C)NC(=O)[C@H](CC(N)=O)NC(=O)CN)C(=O)N[C@@H](CC(C)C)C(N)=O [G1]")
44.9778

###

Record set of Average (percentage cell inhibition), Dmastoparan MDA-MB231 12.5uM for target or system MDA-MB-231 cells.
MEASURE_NAME: Average (percentage cell inhibition), Dmastoparan MDA-MB231 12.5uM (%)

>>> reading("CC[C@H](C)[C@H](N)C(=O)N[C@@H](Cc1ccc(O)cc1)C(=O)N[C@@H](CC(C)C)C(=O)N[C@@H](CCCCN)C(=O)N[C@@H](C)C(=O)N[C@@H](CC(C)C)C(=O)N[C@@H](C)C(=O)N[C@@H](C)C(=O)N[C@@H](CC(C)C)C(=O)N[C@@H](C)C(=O)N[C@@H](CCCCN)C(=O)N[C@@H](CCCCN)C(=O)N[C@H](C(=O)N[C@@H](CC(C)C)C(N)=O)[C@@H](C)CC")
75.0702
>>> reading("CC[C@H](C)[C@H](N)C(=O)N[C@@H](CC(N)=O)C(=O)N[C@@H](CC(C)C)C(=O)N[C@@H](CCCCN)C(=O)N[C@@H](C)C(=O)N[C@@H](CC(C)C)C(=O)N[C@@H](C)C(=O)N[C@@H](C)C(=O)N[C@@H](CC(C)C)C(=O)N[C@@H](C)C(=O)N[C@@H](CCCCN)C(=O)N[C@@H](CCCCN)C(=O)N[C@H](C(=O)N[C@H](C(N)=O)[C@@H](C)CC)[C@@H](C)CC")
33.7751
>>> reading("CC[C@H](C)[C@H](N)C(=O)N[C@@H](CC(N)=O)C(=O)N[C@@H](CC(C)C)C(=O)N[C@H](C(=O)N[C@@H](C)C(=O)N[C@@H](CC(C)C)C(=O)N[C@@H](C)C(=O)N[C@@H](C)C(=O)N[C@@H](CC(C)C)C(=O)N[C@@H](C)C(=O)N[C@@H](CCCCN)C(=O)N[C@@H](CCCCN)C(=O)N[C@H](C(=O)N[C@@H](CC(C)C)C(N)=O)[C@@H](C)CC)[C@@H](C)CC")
30.9221

###

Record set of Average (percentage cell inhibition), Dmastoparan MDA-MB231 12.5uM for target or system MDA-MB-231 cells.
MEASURE_NAME: Average (percentage cell inhibition), Dmastoparan MDA-MB231 12.5uM (%)

>>> reading("CC[C@H](C)[C@H](N)C(=O)N[C@@H](CC(N)=O)C(=O)N[C@@H](Cc1ccc(O)cc1)C(=O)N[C@@H](CCCCN)C(=O)N[C@@H](C)C(=O)N[C@@H](CC(C)C)C(=O)N[C@@H](C)C(=O)N[C@@H](C)C(=O)N[C@@H](CC(C)C)C(=O)N[C@@H](C)C(=O)N[C@@H](CCCCN)C(=O)N[C@@H](CCCCN)C(=O)N[C@H](C(=O)N[C@@H](CC(C)C)C(N)=O)[C@@H](C)CC")
39.9685
>>> reading("CC[C@H](C)[C@H](N)C(=O)N[C@@H](CCC(=O)O)C(=O)N[C@@H](CC(C)C)C(=O)N[C@@H](CCCCN)C(=O)N[C@@H](C)C(=O)N[C@@H](CC(C)C)C(=O)N[C@@H](C)C(=O)N[C@@H](C)C(=O)N[C@@H](CC(C)C)C(=O)N[C@@H](C)C(=O)N[C@@H](CCCCN)C(=O)N[C@@H](CCCCN)C(=O)N[C@H](C(=O)N[C@@H](CC(C)C)C(N)=O)[C@@H](C)CC [E2]")
39.1083

###

test system: PBMC; conditions: 12.5 µM
MEASURE_NAME: Average (percentage cell inhibition), Mastoparan PBMC (%)

>>> reading("CC[C@H](C)[C@H](N)C(=O)N[C@@H](CC(N)=O)C(=O)N[C@@H](C)C(=O)N[C@@H](CCCCN)C(=O)N[C@@H](C)C(=O)N[C@@H](CC(C)C)C(=O)N[C@@H](C)C(=O)N[C@@H](C)C(=O)N[C@@H](CC(C)C)C(=O)N[C@@H](C)C(=O)N[C@@H](CCCCN)C(=O)N[C@@H](CCCCN)C(=O)N[C@H](C(=O)N[C@@H](CC(C)C)C(N)=O)[C@@H](C)CC")
-7.622
>>> reading("CC[C@H](C)[C@H](NC(=O)[C@H](CCCCN)NC(=O)[C@H](CCCCN)NC(=O)[C@H](C)NC(=O)[C@H](CC(C)C)NC(=O)[C@H](C)NC(=O)[C@H](C)NC(=O)[C@H](CC(C)C)NC(=O)[C@H](C)NC(=O)[C@H](CCCCN)NC(=O)[C@H](CC(C)C)NC(=O)[C@H](CC(N)=O)NC(=O)[C@@H](N)CO)C(=O)N[C@@H](CC(C)C)C(N)=O")
-13.6432
>>> reading("CC[C@H](C)[C@H](N)C(=O)N[C@@H](CC(N)=O)C(=O)N[C@@H](CC(C)C)C(=O)N[C@@H](CCCCN)C(=O)N[C@@H](C)C(=O)N[C@H](C(=O)N[C@@H](C)C(=O)N[C@@H](C)C(=O)N[C@@H](CC(C)C)C(=O)N[C@@H](C)C(=O)N[C@@H](CCCCN)C(=O)N[C@@H](CCCCN)C(=O)N[C@H](C(=O)N[C@@H](CC(C)C)C(N)=O)[C@@H](C)CC)[C@@H](C)CC")
13.3589

###

system: MDA-MB-231 cells
I would appreciate it if you labelled entries fulfilled when Average (percentage cell inhibition), Dmastoparan MDA-MB231 12.5uM is 40% or higher, otherwise not fulfilled.

>>> qualitative_label("CC[C@H](C)[C@H](N)C(=O)N[C@@H](CC(N)=O)C(=O)N[C@@H](CC(C)C)C(=O)N[C@@H](CCCCN)C(=O)N[C@@H](C)C(=O)N[C@@H](CC(C)C)C(=O)N[C@@H](CO)C(=O)N[C@@H](C)C(=O)N[C@@H](CC(C)C)C(=O)N[C@@H](C)C(=O)N[C@@H](CCCCN)C(=O)N[C@@H](CCCCN)C(=O)N[C@H](C(=O)N[C@@H](CC(C)C)C(N)=O)[C@@H](C)CC [S7]")
"not fulfilled"
>>> qualitative_label("CC[C@H](C)[C@H](N)C(=O)N[C@@H](CC(N)=O)C(=O)N[C@@H](CC(C)C)C(=O)N[C@@H](CCCCN)C(=O)N[C@@H](C)C(=O)N[C@@H](CC(C)C)C(=O)N[C@@H](C)C(=O)NCC(=O)N[C@@H](CC(C)C)C(=O)N[C@@H](C)C(=O)N[C@@H](CCCCN)C(=O)N[C@@H](CCCCN)C(=O)N[C@H](C(=O)N[C@@H](CC(C)C)C(N)=O)[C@@H](C)CC [G8]")
"not fulfilled"
>>> qualitative_label("CC[C@H](C)[C@H](N)C(=O)N[C@@H](CC(N)=O)C(=O)N[C@@H](CC(C)C)C(=O)N[C@@H](CCCCN)C(=O)N[C@@H](C)C(=O)N[C@@H](CC(C)C)C(=O)N[C@@H](C)C(=O)N[C@@H](C)C(=O)N[C@@H](CC(C)C)C(=O)N[C@@H](C)C(=O)N[C@@H](Cc1c[nH]cn1)C(=O)N[C@@H](CCCCN)C(=O)N[C@H](C(=O)N[C@@H](CC(C)C)C(N)=O)[C@@H](C)CC [H11]")
"not fulfilled"
>>> qualitative_label("CC[C@H](C)[C@H](N)C(=O)N[C@@H](CC(N)=O)C(=O)N[C@@H](CC(C)C)C(=O)N[C@@H](Cc1c[nH]c2ccccc12)C(=O)N[C@@H](C)C(=O)N[C@@H](CC(C)C)C(=O)N[C@@H](C)C(=O)N[C@@H](C)C(=O)N[C@@H](CC(C)C)C(=O)N[C@@H](C)C(=O)N[C@@H](CCCCN)C(=O)N[C@@H](CCCCN)C(=O)N[C@H](C(=O)N[C@@H](CC(C)C)C(N)=O)[C@@H](C)CC [W4]")
"fulfilled"
